# Test name: refractive index (Na D-line) (dimensionless)
# Experimental parameters: 293.15 K; 101.33 kPa; Liquid; Standard Abbe refractometry
Measured property: refractive index

[
  {
    "Molecule": "CCCCOC(C)=O [butyl ethanoate]",
    "refractive index": 1.3941
  },
  {
    "Molecule": "CCCCO",
    "refractive index": 1.3993
  },
  {
    "Molecule": "CC(O)C(C)O (centres undefined)",
    "refractive index": 1.4375
  },
  {
    "Molecule": "CCOC(C)=O [ethyl acetate]",
    "refractive index": 1.3701
  }
]

----------
# Experimental parameters: Liquid; Ebulliometric method (Recirculating still)
Measured property: Normal boiling temperature (°C)

See these solved cases before continuing.
[
  {
    "Compound": "CCCCO",
    "Normal boiling temperature, °C": 116.97
  },
  {
    "Compound": "CCCCOC(C)=O [butyl ethanoate]",
    "Normal boiling temperature, °C": 125.96
  }
]

P. CC(O)C(C)O (centres undefined)
Q. CCOC(C)=O [ethyl acetate]
Query: Return label of the item with the larger Normal boiling temperature. Candidates: P , Q . // caller expects the label of the chosen entry
Reply: P
